Test system: HeLa MKYP cells
Assay: Human mitophagy assay (HeLa mKeima assay, FACS)
Type: cell-based
Settings: Homo sapiens, HeLa, average ± spread; read-out: E100 EC50 (μM) (average)
Outcome Measure: EC50
In your response, put the unit directly after the numeric value.

# count of solved cases: 2
FC(F)(F)c1cc2c(N[C@H]3c4ccccc4CC[C@@H]3N3C[C@H]4COC[C@H]4C3)ncnc2[nH]1
0.1 µM
Fc1ccc2c(c1)CC[C@H](N1CCOCC1)[C@H]2Nc1ncnc2[nH]c(C(F)(F)F)cc12 (single isomer, unassigned)
0.48 µM

Continue with the next molecule.
What does the data say about its EC50? Entry: Fc1ccc2c(c1)CC[C@H](N1CCOCC1)[C@H]2Nc1ncnc2[nH]c(C3CC3)cc12 (single isomer, unassigned)
0.3 µM

Just for reference, patent US20240018146A1 is where these values come from.
